Origin of values: PubChem BioAssay (NCI)

- Tested on: UO-31 renal
- TEST NAME: NCI tumour cell line growth inhibition, 48 h
OBSERVATION TYPE: TGI (µM)

compound="O=C(O)CCC1(C(=O)O)CCC(=O)c2ccccc21 (stereo not given)" sign_qualifier=> number=100
compound=O=S(=O)(Nc1ccc2ccccc2c1)N1CCCCC1 sign_qualifier== number=22.9
compound="CN1CCC(CN2c3ccccc3Sc3ccccc32)C1 (stereo not given)" sign_qualifier== number=30
compound=C=C(C)[C@@H]1CC[C@]2(C(N)=O)CC[C@]3(C)[C@H](CC[C@@H]4[C@@]5(C)C/C(=C/c6cccnc6)C(=O)C(C)(C)[C@@H]5CC[C@]43C)[C@@H]12 sign_qualifier=> number=100
compound=COCCOc1nc(-c2ccccc2)nc2ccccc12 sign_qualifier=> number=100
compound="CCOC(=O)/C=C/C1OC(C)(C)OC1/C=C/C(=O)OCC (stereo not given)" sign_qualifier=> number=100
compound=CCCCS/C(=C(/C#N)C(N)=O)c1cc2c([nH]1)CCCC2 sign_qualifier== number=25.8
compound=OCCNCN(CNCCO)c1nc(N(CNCCO)CNCCO)nc(N(CNCCO)CNCCO)n1 sign_qualifier== number=0.25
compound=COc1ccc(CCc2nc3cc(-c4c(C)noc4C)ccc3n2CCN2CCOCC2)cc1 sign_qualifier=> number=100

====

- Test system: SK-MEL-5 melanoma
- TEST NAME: NCI tumour cell line growth inhibition, 48 h
OBSERVATION TYPE: TGI

compound="CCOC(=O)CC1C(O)C(=O)N(C)C1c1ccccc1 (stereo not drawn)" observation_type=TGI result="> 100 µM"
compound=CCN(CC)C(=S)SS(=O)(=O)c1ccc(N)cc1 observation_type=TGI result="> 100 µM"
compound="O=C(Nc1ccccc1SC(/C=C/NNC1=NC(c2ccccc2)C(c2ccccc2)=NN1)c1ccccc1)c1ccc(Cl)cc1Cl (stereo not drawn)" observation_type=TGI result="> 100 µM"

====

- Tested on: HT29 colon
- TEST NAME: NCI tumour cell line growth inhibition, 48 h
OBSERVATION TYPE: TGI

molecule="CC1(CO)OC(n2cnc3c(N)ncnc32)C(O)C1O (stereo not drawn)" observation_type=TGI result="> 100 µM"
molecule=CC(=O)/C(=C\c1ccccc1)C(=O)Nc1ccccc1 observation_type=TGI result="> 100 µM"
molecule="NC(=O)/C(=N\\NC(=O)c1cc2ccccc2cc1O)C1C(=O)N(c2ccccc2)N=C1N (stereo not drawn)" observation_type=TGI result="> 100 µM"

====

- Test system: NCI-H460 lung
- TEST NAME: NCI tumour cell line growth inhibition, 48 h
OBSERVATION TYPE: TGI

compound="CC1(C)OCC(C2OC(OC(=O)c3ccc(C(F)(F)F)cc3)C3OC(C)(C)OC23)O1 (stereo not drawn)" result="> 77.5 µM"
compound="COc1ccc(C2NC(=O)c3cc4c(cc3N2)OCO4)cc1 (stereo not drawn)" result="> 100 µM"
compound=CN(C)CCNS(=O)(=O)N(C)C result="> 100 µM"
compound="NC(=O)CC(N)C(N)=O (stereo not drawn)" result="> 100 µM"
compound="CCSC1=CC(Cc2ccc(OC)cc2)N(C(=O)OC)C1 (stereo not drawn)" result="> 100 µM"
compound="COc1cc2c(cc1OCCCCCN1CCN(CCCCCOc3cc4c(cc3OC)C(=O)C3CCC[C@H]3C=N4)CC1)N=C[C@@H]1CCCC1C2=O (stereo partly drawn)" result="> 94.2 µM"
compound=N#Cc1c(=N)cc2c3ccccc3oc3c(C#N)c(N)[nH]c1c32 result="> 100 µM"
compound=COc1ccc(/C=C/C(=O)Nc2cc(/C=C\c3cc(OC)c(OC)c(OC)c3)cc(OC)c2OC)cc1OC result="> 100 µM"

====

- Test system: 786-0 renal
- TEST NAME: NCI tumour cell line growth inhibition, 48 h
Reported values of TGI for individual entries
OBSERVATION TYPE: TGI

compound=COc1cc2c3c(n(CCCN)c(=O)c2cc1OC)-c1ccc(N(C)C)cc1C3=O result="11.8 µM"
compound=NC1(P(=O)(O)O)CCCCC1 result="> 100 µM"
compound=O=C1NC(=NCc2c(Cl)cccc2Cl)S/C1=C\c1ccc2ncccc2c1 result="> 25 µM"
compound=COc1ccc(C2=Cc3nc2c(-c2ccccc2)c2ccc([nH]2)c(-c2ccccc2)c2nc(c(-c4ccccc4)c4ccc([nH]4)c3-c3ccccc3)C=C2)cc1 result="> 100 µM"
compound="CS(=O)(=O)Nc1ccc2c(c1)N(S(C)(=O)=O)CC2COS(C)(=O)=O (stereo not drawn)" result="> 100 µM"
compound=O=S(=O)(Nc1ccc2ccccc2c1)N1CCCCC1 result="30 µM"
compound="COc1ccc2c(c1OC)C(=O)OC2C1c2c(c(N)c3c(c2OC)OCO3)CCN1C (stereo not drawn)" result="> 100 µM"
compound=CCOc1ccccc1C(=O)/C=C/c1cc2ccccc2[nH]c1=O result="1.33 µM"

====

- System: HOP-62 NSCLC
- TEST NAME: NCI tumour cell line growth inhibition, 48 h
Reported values of TGI for individual entries
OBSERVATION TYPE: TGI

compound=C#CCNCCCN1C(=O)c2ccc3c4c(ccc(c24)C1=O)C(=O)N(CCCNCC#C)C3=O observation_type=TGI result="1.56 µM"
compound=CCCCCC[n+]1noc(N)c1-c1ccc(-c2c(N)on[n+]2CCCCCC)cc1 observation_type=TGI result="20.6 µg/mL"
compound="CCCCCCC1=NOC(C(c2cc[nH]c2)N(C)[C@H](C(=O)OC)C(C)C)C1 (some centres undefined)" observation_type=TGI result="> 100 µM"
compound=NS(=O)(=O)c1ccc(N=Nc2c(O)[nH]c3ccc(Cl)cc23)cc1 observation_type=TGI result="> 25 µM"
compound=c1ccc(P2c3ccccc3Nc3ccccc32)cc1 observation_type=TGI result="> 100 µM"
compound="COc1cc(C2c3cc4c(cc3[C@@H](Nc3ccc(F)cc3)C3CO[C@@H](O)[C@H]23)OCO4)cc(OC)c1O (some centres undefined)" observation_type=TGI result="> 25 µM"
compound=O=C1/C(=C/c2ccc(Cl)cc2)N=C(c2ccccc2)N1c1nc2ccc(Sc3ccccc3)cc2[nH]1 observation_type=TGI result="> 100 µM"
compound=CO/C(=N\N=C\c1ccccc1F)c1ccncc1 observation_type=TGI result="> 10 µM"
compound="NC(=O)/C(=N\\NC(=O)c1cc2ccccc2cc1O)C1C(=O)N(c2ccccc2)N=C1N (centres undefined)" observation_type=TGI result="> 100 µM"

====

- System: COLO 205 colon
- TEST NAME: NCI tumour cell line growth inhibition, 48 h
Where a SMILES comes first, the peptide text is derived from it.
OBSERVATION TYPE: GI50

molecule=CCCCCC[n+]1noc(N)c1-c1ccc(-c2c(N)on[n+]2CCCCCC)cc1 target_entity="COLO 205 colon" result="1.66 µg/mL"
molecule=O=C1c2ccccc2S(=O)(=O)N1CSC(=S)N1CCOCC1 target_entity="COLO 205 colon" result="62.4 µM"
molecule=CCCCCCCCn1ccc2cc(NC(=O)Cn3cc(CN4CCN(CC)CC4)nn3)ccc21 target_entity="COLO 205 colon" result="1.8 µM"
molecule="CCC(C)C1NC(=O)C(CCCCN)NC(=O)C(CCCCN)NC(=O)C(CC(C)C)NC(=O)C(CCCCN)NC(=O)C(C(C)CC)NC(=O)C(C(C)C)NC(=O)C(C(C)CC)NC(=O)C(CCCCN)NC(=O)C(CCCCN)NC(=O)C(C)NC(=O)C(CCCCN)NC(=O)C(CC(C)C)NC1=O (configuration not stated) (cyclo(AKKIVIKLKKILK); configuration not given here)" target_entity="COLO 205 colon" result="1.74 µM"
molecule=CCCCCCCCCCCCCCCC(=O)Nc1ccn([C@@H]2O[C@H](CO)[C@@H](O)[C@@H]2C#N)c(=O)n1 target_entity="COLO 205 colon" result="17.6 µM"
molecule=Nc1c(C(=O)N/N=C/c2ccco2)cnn1-c1ccnc2c(C(F)(F)F)cccc12 target_entity="COLO 205 colon" result="24.9 µM"
molecule=CC[N-]c1nnnn1CC.[Au+].c1ccc([PH+](c2ccccc2)c2ccccc2)cc1 target_entity="COLO 205 colon" result="2.19 µM"
molecule=COc1cc(-c2cc(-c3nc4ccc(F)cc4[nH]3)[nH]n2)cc(OC)c1OC target_entity="COLO 205 colon" result="3.26 µM"
molecule=COC(=O)[C@]12CC[C@@H](C)[C@H](C)[C@@H]1C1=CC[C@@H]3[C@@]4(C)C[C@@H](OC(C)=O)[C@H](O)[C@@](C)(CO)[C@@H]4[C@H](O)C[C@@]3(C)[C@]1(C)CC2 target_entity="COLO 205 colon" result="11.6 µM"
molecule=C#CC#CC#CC#CC#CC#CC#CC#CC[C@@H]1OC[C@H](COC(=O)O[C@@H](C(=O)O[C@H]2C[C@@]3(O)[C@@H](OC(=O)c4ccccc4)[C@@H]4[C@]5(OC(C)=O)CO[C@@H]5C[C@H](O)[C@@]4(C)C(=O)[C@H](OC(C)=O)C(=C2C)C3(C)C)[C@@H](NC(=O)c2ccccc2)c2ccccc2)O1 target_entity="COLO 205 colon" result="0.665 µM"
molecule="COC(=O)C(C)NP(=O)(OCc1ccc(Cn2cnc3c(N)ncnc32)cc1)Oc1ccccc1 (configuration not stated)" target_entity="COLO 205 colon" result="> 91.6 µM"
molecule=O=c1[nH]nc(-c2nn(-c3ccc(Cl)cc3)cc2O)o1 target_entity="COLO 205 colon" result="3.25 µM"
